Target: CYP450 2D6 (Homo sapiens, UniProt P10635)
Construct: purchased Invitrogen (Paisley, UK), Pan Vera Vivid screening kits; host or cells: baculosomes
Sequence (P10635 whole entry): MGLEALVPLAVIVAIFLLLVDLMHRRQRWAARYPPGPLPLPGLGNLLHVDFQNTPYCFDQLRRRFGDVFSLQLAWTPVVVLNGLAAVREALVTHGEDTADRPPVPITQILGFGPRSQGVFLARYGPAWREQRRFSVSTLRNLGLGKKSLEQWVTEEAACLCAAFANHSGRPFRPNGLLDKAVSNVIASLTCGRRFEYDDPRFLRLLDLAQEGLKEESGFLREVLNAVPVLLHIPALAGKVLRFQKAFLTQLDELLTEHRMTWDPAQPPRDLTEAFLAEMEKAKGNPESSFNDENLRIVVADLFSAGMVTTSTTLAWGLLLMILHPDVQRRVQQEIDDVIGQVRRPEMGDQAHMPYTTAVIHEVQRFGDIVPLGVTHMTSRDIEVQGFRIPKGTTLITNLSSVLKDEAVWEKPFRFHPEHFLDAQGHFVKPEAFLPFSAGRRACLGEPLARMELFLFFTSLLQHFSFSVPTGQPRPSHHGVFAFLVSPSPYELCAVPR
Assay: Potency against cytochrome P450 2D6 (Vivid screening kit)
Format: in vitro ADME
Details: tested at a concentration of 10 μM
pIC50: −log10 of the molar value.
metric: pIC50

Consider the compound "NC[C@@](O)(c1ccc(Cl)cc1)c1ccc(-c2cn[nH]c2)cc1" and give its measured pIC50.
< 5.00
